Target: human FPR2 (Homo sapiens (Human))
Test: FPR2 cyclic adenosine monophosphate (cAMP) assay
Assay type: cell-based
Settings: CHO cells overexpressing human FPR2; forskolin 5 μM, IBMX 200 μM; inhibition of cAMP production, HTRF; read-out: hFPR2 cAMP2 EC50
Experimental: N-formyl peptide receptors (FPRs) are a family of chemo attractant receptors that facilitate leukocyte response during inflammation. FPRs belong to the seven-transmembrane G protein-coupled receptor superfamily and are linked to inhibitory G-proteins (Gi). […] FPR2 and FPR1 Cyclic Adenosine Monophosphate (cAMP) Assays. […] The level of intracellular cAMP was determined using the HTRF HiRange cAMP assay reagent kit (Cisbio) according to manufacturer's instruction. […]
pEC50: −log10 of the molar value.
measurement-name: pEC50

Consider the reported pEC50 for these compounds:
>  <compound>
COCCn1ccc(C)c(N2C[C@@H](c3c(F)cc(OC)cc3F)[C@H](NC(=O)NC3CCc4cc(OC)ccc4C3)C2=O)c1=O (some centres unmarked) [Example 7]

>  <meas-value>
9.30

$$$$
>  <compound>
COCCn1cccc(N2C[C@@H](c3c(F)cc(OC)cc3F)[C@H](NC(=O)NC3CCc4cc(OC)ccc4C3(C)C)C2=O)c1=O (some centres unmarked) [Example 54]

>  <meas-value>
7.72

$$$$

(a) COc1cc(F)c([C@H]2[C@H](NC(=O)NC3CCc4cc(OC)ccc4C3)C(=O)N(c3cccn(CCO)c3=O)[C@H]2C)c(F)c1 (single isomer, unassigned) [Example 90]
(b) COCCn1cccc(N2C(=O)[C@@H](NC(=O)N[C@H]3CC[C@H](C(F)F)CC3)[C@H](c3c(F)cc(OC)cc3F)[C@@H]2C)c1=O [Example 105]
(c) COc1cc(F)c([C@H]2[C@H](NC(=O)NC3CCc4cc(OC)ccc4C3)C(=O)N(c3ncccc3OC)[C@H]2C)c(F)c1 (some centres unmarked) [Example 15]
(d) COc1cc(F)c([C@@H]2CN(c3cccn(CCO)c3=O)C(=O)[C@H]2NC(=O)N[C@H]2CC[C@H](C(F)F)CC2)c(F)c1 [Example 65]
**Q:** Returns the items ordered by pEC50, from maximum to minimum. Sort and list the labels as requested.
**A:** c, a, b, d
(c: 8.82, a: 8.40, b: 7.77, d: 7.26)

* * *

Biological target: human FPR1 (Homo sapiens (Human), UniProt P21462)
Sequence (P21462 whole entry): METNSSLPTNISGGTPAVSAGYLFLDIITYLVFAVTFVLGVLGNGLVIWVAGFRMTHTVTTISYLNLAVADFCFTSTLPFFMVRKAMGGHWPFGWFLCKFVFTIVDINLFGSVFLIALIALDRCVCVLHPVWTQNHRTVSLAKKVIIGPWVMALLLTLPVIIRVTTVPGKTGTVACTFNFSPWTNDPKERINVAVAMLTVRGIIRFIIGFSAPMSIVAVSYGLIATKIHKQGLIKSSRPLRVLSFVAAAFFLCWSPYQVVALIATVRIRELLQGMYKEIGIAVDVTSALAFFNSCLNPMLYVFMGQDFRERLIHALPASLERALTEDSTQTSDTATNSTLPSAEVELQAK
Assay: FPR1 cyclic adenosine monophosphate (cAMP) assay
Assay type: cell-based
Conditions: CHO cells overexpressing human FPR1; forskolin 10 μM, IBMX 200 μM; inhibition of cAMP production, HTRF; read-out: hFPR1 cAMP EC50
pEC50: −log10 of the molar value.
measurement-name: pEC50

Sample records with pEC50:
>  <compound>
CCn1cccc(N2C[C@@H](c3ccc(OC)cc3)[C@H](NC(=O)NC3CCc4cc(Cl)ccc4C3)C2=O)c1=O (some centres unmarked) [Example 9]

>  <tested-on>
human FPR1 (Homo sapiens (Human), UniProt P21462)

>  <pEC50>
8.22

$$$$
>  <compound>
COCCNc1ccnc(N2C[C@@H](c3c(F)cc(OC)cc3F)[C@H](NC(=O)N[C@H]3CC[C@H](C(F)F)CC3)C2=O)c1C(F)(F)F

>  <tested-on>
human FPR1 (Homo sapiens (Human), UniProt P21462)

>  <pEC50>
5.74

$$$$
>  <compound>
COCCn1cccc(N2C[C@@H](c3ccc(Cl)cc3)[C@H](NC(=O)NC3CCc4cc(OC)ccc4C3)C2=O)c1=O (some centres unmarked)

>  <tested-on>
human FPR1 (Homo sapiens (Human), UniProt P21462)

>  <pEC50>
9.30

$$$$
>  <compound>
COCCn1cccc(N2C(=O)[C@@H](NC(=O)NC3CCc4cc(OC)ccc4C3(C)C)[C@H](c3c(F)cc(OC)cc3F)[C@@H]2C)c1=O (some centres unmarked) [Example 40]

>  <tested-on>
human FPR1 (Homo sapiens (Human), UniProt P21462)

>  <pEC50>
6.70

$$$$

(P) COCCn1ccc(C)c(N2C[C@@H](c3c(F)cc(OC)cc3F)[C@H](NC(=O)NC3CCc4cc(OC)ccc4C3)C2=O)c1=O (some centres unmarked)
(Q) COc1cc(F)c([C@H]2[C@H](NC(=O)N[C@H]3CC[C@H](C(F)F)CC3)C(=O)N(c3cccn(CCO)c3=O)[C@H]2C)c(F)c1
(R) COc1cc(F)c([C@@H]2CN(c3nccc(N4CCN5CCCC5C4)c3C(F)(F)F)C(=O)[C@H]2NC(=O)N[C@H]2CC[C@H](C(F)F)CC2)c(F)c1 (single isomer, unassigned) [Example 103]
(S) COc1cc(F)c([C@@H]2CN(c3ncccc3C(F)(F)F)C(=O)[C@H]2NC(=O)NC2COc3cc(OC)ccc3C2)c(F)c1 (some centres unmarked) [Example 33]
**Q:** Rank ascending by pEC50. Put the labels in the order asked and list them.
**A:** R, Q, S, P
(R: 5.68, Q: 5.96, S: 8.38, P: 9.15)

(P) COc1cc(F)c([C@@H]2CN(c3ncccc3C(F)(F)F)C(=O)[C@H]2NC(=O)NC2CCc3cc(Cl)ccc3C2)c(F)c1 (some centres unmarked) [Example 31]
(Q) COc1cc(F)c([C@@H]2CN(c3ncccc3C(F)(F)F)C(=O)[C@H]2NC(=O)NC2CCc3cc(OC)ccc3C2)c(F)c1 (some centres unmarked) [Example 46]
**Q:** Which of these two has the smaller recorded pEC50: P or Q ? Mark your selection by writing its label.
**A:** P

(A) COCC(CO)n1cccc(N2C[C@@H](c3c(F)cc(OC)cc3F)[C@H](NC(=O)NC3CCc4cc(OC)ccc4C3)C2=O)c1=O (some centres unmarked) [Example 82]
(B) COCCn1cccc(N2C(=O)[C@@H](NC(=O)N[C@H]3CC[C@H](C(F)F)CC3)[C@H](c3c(F)cc(OC)cc3F)[C@@H]2C)c1=O
**Q:** Among A and B , which shows a numerically higher pEC50 result? Mark your selection by writing its label.
**A:** A
(A: 9.10, B: 5.92)

* * *

Target: human FPR2 (Homo sapiens (Human), UniProt P25090)
Sequence (P25090 whole entry): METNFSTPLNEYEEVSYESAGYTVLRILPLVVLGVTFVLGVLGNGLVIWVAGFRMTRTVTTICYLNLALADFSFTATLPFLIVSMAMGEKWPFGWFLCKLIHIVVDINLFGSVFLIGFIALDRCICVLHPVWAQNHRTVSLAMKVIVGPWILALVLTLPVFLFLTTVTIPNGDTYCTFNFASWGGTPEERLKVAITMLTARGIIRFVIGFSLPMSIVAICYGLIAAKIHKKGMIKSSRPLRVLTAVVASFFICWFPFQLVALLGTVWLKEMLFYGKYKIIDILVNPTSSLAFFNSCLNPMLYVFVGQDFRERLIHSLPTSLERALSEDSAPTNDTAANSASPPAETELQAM
Assay: FPR2 cyclic adenosine monophosphate (cAMP) assay
Assay type: cell-based
Settings: read-out: hFPR2 cAMP2 EC50
measurement-name: EC50 (nM)
Enter your answer as a number in nM; do not include the unit.

**Q:** Reported EC50, compound COc1cc(F)c([C@@H]2CN(c3ncccc3C(F)(F)F)C(=O)[C@H]2NC(=O)N[C@H]2CC[C@H](C(F)F)CC2)c(F)c1 [Example 32] : ____
**A:** 3.9

* * *

Target: human FPR2 (Homo sapiens (Human), UniProt P25090)
Assay: FPR2 cyclic adenosine monophosphate (cAMP) assay
Format: cell-based
Conditions: CHO cells overexpressing human FPR2; forskolin 5 μM, IBMX 200 μM; inhibition of cAMP production, HTRF; read-out: hFPR2 cAMP2 EC50
measurement-name: EC50 (nM)

Known results for molecules:
>  <molecule>
COc1cc(F)c([C@@H]2CN(c3ncccc3C(F)(F)F)C(=O)[C@H]2NC(=O)NC2CCc3cc(OC)ccc3C2(C)C)c(F)c1 (stereo partly drawn) [Example 58]

>  <tested-on>
human FPR2 (Homo sapiens (Human), UniProt P25090)

>  <endpoint-unit>
nM

>  <EC50>
29

$$$$
>  <molecule>
CCn1cccc(N2C[C@@H](c3ccc(OC)cc3)[C@H](NC(=O)NC3CCc4cc(Cl)ccc4C3)C2=O)c1=O (stereo partly drawn) [Example 9]

>  <tested-on>
human FPR2 (Homo sapiens (Human), UniProt P25090)

>  <endpoint-unit>
nM

>  <EC50>
0.7

$$$$
>  <molecule>
COc1cc(F)c([C@@H]2CN(c3nccc(NCC4CCOC4)c3C(F)(F)F)C(=O)[C@H]2NC(=O)N[C@H]2CC[C@H](C(F)F)CC2)c(F)c1 (single isomer, unassigned) [Example 74]

>  <tested-on>
human FPR2 (Homo sapiens (Human), UniProt P25090)

>  <endpoint-unit>
nM

>  <EC50>
26

$$$$
>  <molecule>
COCC(CO)n1cccc(N2C[C@@H](c3c(F)cc(OC)cc3F)[C@H](NC(=O)NC3CCc4cc(OC)ccc4C3)C2=O)c1=O (stereo partly drawn) [Example 82]

>  <tested-on>
human FPR2 (Homo sapiens (Human), UniProt P25090)

>  <endpoint-unit>
nM

>  <EC50>
9.9

$$$$
>  <molecule>
COCCn1cccc(N2C(=O)[C@@H](NC(=O)NC3CCc4cc(OC)ccc4C3)[C@H](c3c(F)cc(OC)cc3F)[C@@H]2C)c1=O (stereo partly drawn) [Example 26]

>  <tested-on>
human FPR2 (Homo sapiens (Human), UniProt P25090)

>  <endpoint-unit>
nM

>  <EC50>
2.8

$$$$
>  <molecule>
COc1cc(F)c([C@H]2[C@H](NC(=O)N[C@H]3CC[C@H](C(F)F)CC3)C(=O)N(c3ncccc3OC(C)C)[C@H]2C)c(F)c1 [Example 51]

>  <tested-on>
human FPR2 (Homo sapiens (Human), UniProt P25090)

>  <endpoint-unit>
nM

>  <EC50>
12

$$$$
>  <molecule>
COc1cc(F)c([C@@H]2CN(c3ncccc3C(F)(F)F)C(=O)[C@H]2NC(=O)NC2CCc3cc(OC)ccc3C2)c(F)c1 (stereo partly drawn) [Example 47]

>  <tested-on>
human FPR2 (Homo sapiens (Human), UniProt P25090)

>  <endpoint-unit>
nM

>  <EC50>
7.3

$$$$
>  <molecule>
COc1cc(F)c([C@@H]2CN(c3nccc(NCC4CCCO4)c3C(F)(F)F)C(=O)[C@H]2NC(=O)N[C@H]2CC[C@H](C(F)F)CC2)c(F)c1 (stereo partly drawn) [Example 93]

>  <tested-on>
human FPR2 (Homo sapiens (Human), UniProt P25090)

>  <endpoint-unit>
nM

>  <EC50>
14

$$$$

(P) COCCn1cccc(N2C(=O)[C@@H](NC(=O)NC3CCc4cc(Cl)ccc4C3)[C@H](c3c(F)cc(OC)cc3F)[C@@H]2C)c1=O (stereo partly drawn) [Example 27]
(Q) COc1cc(F)c([C@@H]2CN(c3nccc(N4CCN5CCCC5C4)c3C(F)(F)F)C(=O)[C@H]2NC(=O)N[C@H]2CC[C@H](C(F)F)CC2)c(F)c1 (single isomer, unassigned) [Example 103]
(R) COc1cc(F)c([C@H]2[C@H](NC(=O)NC3CCc4cc(OC)ccc4C3)C(=O)N(c3ncccc3OC)[C@H]2C)c(F)c1 (stereo partly drawn) [Example 18]
(S) COc1cc(F)c([C@@H]2CN(c3cccn(CC(O)C(F)(F)F)c3=O)C(=O)[C@H]2NC(=O)NC2CCc3cc(OC)ccc3C2)c(F)c1 (stereo partly drawn) [Example 80]
**Q:** Sort ascending by EC50. Provide your answer as the labels ordered per the instruction.
**A:** R, P, S, Q
